# tgt: Prostaglandin G/H synthase 1 (Ovis aries) (UniProt P05979)
# Sequence (P05979 whole entry): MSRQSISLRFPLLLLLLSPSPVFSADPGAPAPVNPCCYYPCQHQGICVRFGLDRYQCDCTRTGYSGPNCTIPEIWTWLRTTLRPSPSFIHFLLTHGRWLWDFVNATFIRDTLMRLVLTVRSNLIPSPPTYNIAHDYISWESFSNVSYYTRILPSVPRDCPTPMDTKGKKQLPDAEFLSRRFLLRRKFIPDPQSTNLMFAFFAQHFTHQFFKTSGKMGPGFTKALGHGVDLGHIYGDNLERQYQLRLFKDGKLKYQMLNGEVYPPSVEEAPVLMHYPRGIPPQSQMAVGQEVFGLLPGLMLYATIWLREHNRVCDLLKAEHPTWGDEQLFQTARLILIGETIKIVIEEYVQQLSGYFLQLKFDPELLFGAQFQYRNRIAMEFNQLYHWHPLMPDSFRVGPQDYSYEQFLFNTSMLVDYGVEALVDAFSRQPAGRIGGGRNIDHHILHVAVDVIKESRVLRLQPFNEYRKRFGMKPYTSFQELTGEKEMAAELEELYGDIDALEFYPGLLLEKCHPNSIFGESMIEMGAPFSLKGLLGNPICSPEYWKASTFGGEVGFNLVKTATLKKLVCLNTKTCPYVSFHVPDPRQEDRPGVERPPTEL
# protocol: Inhibitory activity against Cyclooxygenase using sheep seminal vesicle (SSV) enzyme (COX-1)at 10 uM
# Format: tissue-based
quantity_kind: inhibition (%)
Answer with a number only, understood to be in %.

Worked examples, 4 compounds total:
[[record]]
compound = "CCCNC(=O)N(O)C(C)C#Cc1cc(-c2ccc(Cl)cc2)n(-c2ccc(OC)cc2)n1 (stereo not given)"
tgt = "Prostaglandin G/H synthase 1 (Ovis aries) (UniProt P05979)"
readout_units = "%"
result = 14

[[record]]
compound = "COc1ccc(-n2nc(C#CC(C)N(O)C(N)=O)cc2-c2ccc(C)cc2)cc1 (stereo not given)"
tgt = "Prostaglandin G/H synthase 1 (Ovis aries) (UniProt P05979)"
readout_units = "%"
result = 10

[[record]]
compound = "COc1ccc(-n2nc(C#CC(C)N(O)C(=O)N3CCCCC3)cc2-c2ccc(Cl)cc2)cc1 (stereo not given)"
tgt = "Prostaglandin G/H synthase 1 (Ovis aries) (UniProt P05979)"
readout_units = "%"
result = 44

[[record]]
compound = "CCC(C#Cc1cc(-c2ccc(Cl)cc2)n(-c2ccc(OC)cc2)n1)N(O)C(N)=O (stereo not given)"
tgt = "Prostaglandin G/H synthase 1 (Ovis aries) (UniProt P05979)"
readout_units = "%"
result = 0


Kindly consider the entry below.
Value (inhibition, Prostaglandin G/H synthase 1 (Ovis aries) (UniProt P05979)) for record COc1ccc(-n2nc(C#CC(C)N(O)C(=O)N3CCOCC3)cc2-c2ccc(Cl)cc2)cc1 (stereo not given) = 14

----------
# tgt: Cyclooxygenase (Rattus norvegicus) (UniProt P35355+Q63921)
# protocol: Inhibitory activity against Cyclooxygenase (COX) using broken rat […] leukemia cells (RBL-1) at 10 uM
# Type: cell-based
Listing: inhibition of selected compounds
Answer with a number only, understood to be in %.

Worked examples, 5 compounds total:
[[record]]
compound = "CCc1ccc(-c2cc(C#CC(C)N(O)C(=O)CCl)nn2-c2ccc(OC)cc2)cc1 (stereo not drawn)"
quantity_kind = "inhibition"
readout_units = "%"
result = 86

[[record]]
compound = "COc1ccc(-n2nc(C#CC(C)N(O)C(N)=O)cc2-c2ccc(Cl)cc2)cc1 (stereo not drawn)"
quantity_kind = "inhibition"
readout_units = "%"
result = 0

[[record]]
compound = "COc1ccc(-n2nc(C#CC(C)N(O)C(=O)c3ccco3)cc2-c2ccc(C)cc2)cc1 (stereo not drawn)"
quantity_kind = "inhibition"
readout_units = "%"
result = 61

[[record]]
compound = "COC(=O)N(O)C(C)C#Cc1cc(-c2ccc(Cl)cc2)n(-c2ccc(OC)cc2)n1 (stereo not drawn)"
quantity_kind = "inhibition"
readout_units = "%"
result = 84

[[record]]
compound = "COc1ccc(-n2nc(C#CC(C)N(O)C(=O)c3cccnc3)cc2-c2ccc(C)cc2)cc1 (stereo not drawn)"
quantity_kind = "inhibition"
readout_units = "%"
result = 54


Value (inhibition, Cyclooxygenase (Rattus norvegicus) (UniProt P35355+Q63921)) for record CNC(=O)N(O)C(C)C#Cc1cc(-c2ccc(Cl)cc2)n(-c2ccc(OC)cc2)n1 (stereo not drawn) = 0

Value (inhibition, Cyclooxygenase (Rattus norvegicus) (UniProt P35355+Q63921)) for record CCOC(=O)CCC(=O)N(O)C(C)C#Cc1cc(-c2ccc(CC)cc2)n(-c2ccc(OC)cc2)n1 (stereo not drawn) = 52

Value (inhibition, Cyclooxygenase (Rattus norvegicus) (UniProt P35355+Q63921)) for record COc1ccc(-n2nc(C#CCN(O)C(N)=O)cc2-c2ccc(Cl)cc2)cc1 = 0
